assayed_system: Trypsin (Homo sapiens, UniProt P07477+P07478+P35030)
test_details: Inhibition of trypsin (unknown origin)
Type: protein assay
Measured IC50 of individual entries
measure: IC50 (µM)

INSERT INTO assay_data (smiles_representation, units_symbol, result_number) VALUES
  ('CC(C)C[C@@H](NC(=O)[C@H](O)Cc1ccc(O)c(Br)c1)C(=O)N1[C@H](C(=O)NCCCCNC(=N)N)C[C@@H]2CC[C@@H](O)C[C@@H]21', 'µM', 4.1),
  ('CC[C@H](C)[C@@H](NC(=O)[C@@H](O)Cc1ccc(O)c(Cl)c1)C(=O)N1[C@H](C(=O)NCCCCNC(=N)N)C[C@@H]2CC[C@@H](O)C[C@@H]21', 'µM', 2.8),
  ('CC(C)C[C@@H](NC(=O)[C@H](O)Cc1ccc(O)c(Cl)c1)C(=O)N1[C@H](C(=O)NCCCCNC(=N)N)C[C@@H]2CC[C@@H](O)C[C@@H]21', 'µM', 4.3);
